# Target Or Test System: T1, human histidine-rich glycoprotein (HRG), purified from human plasma (human, UniProt P04196 19-525)
# T1 construct: also called human purified HRG; human purified HRG protein
# T1 sequence: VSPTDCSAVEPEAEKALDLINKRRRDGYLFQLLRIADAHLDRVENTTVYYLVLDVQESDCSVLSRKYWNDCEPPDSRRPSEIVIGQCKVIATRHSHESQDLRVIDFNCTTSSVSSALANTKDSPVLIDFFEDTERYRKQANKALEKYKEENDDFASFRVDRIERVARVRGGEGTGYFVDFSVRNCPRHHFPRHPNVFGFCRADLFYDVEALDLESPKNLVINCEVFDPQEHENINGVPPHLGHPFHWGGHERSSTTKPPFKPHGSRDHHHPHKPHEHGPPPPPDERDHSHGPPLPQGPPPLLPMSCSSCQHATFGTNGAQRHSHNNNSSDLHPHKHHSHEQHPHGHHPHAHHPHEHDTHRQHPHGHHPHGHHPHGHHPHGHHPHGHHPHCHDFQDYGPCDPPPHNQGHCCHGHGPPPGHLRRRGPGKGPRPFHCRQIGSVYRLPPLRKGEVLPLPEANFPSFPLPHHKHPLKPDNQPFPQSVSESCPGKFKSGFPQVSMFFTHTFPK
# Test Protocol: sandwich ELISA, HRG captured by solid phase 81-2C
Observed Property: absorbance at 450 nm

# input What does the record list as absorbance at 450 nm for anti-HRG monoclonal antibody 6-12A-10B-9G (antibody, V domains shown, Mouse hybridoma monoclonal; biotin-labeled as detection antibody and for bead immobilisation) VH: EVQLQESGPGLVKPSQSLSLTCTVTGYSITSDYAWNWIRQFPGNKLEWMGYISYSGSTNYNPSLRSRISITRDTSKNQFFLQLISVTTEDTATYYCGSASYRYAWFAYWGQGTLVTVSA VL: DIQVTQTTSSLSASLGDRVTISCRASQDISNYLNWYQQKPDGTVKLLIYYTSRLHSGVPSRFSGSGSGTDYSLTISNLEQEDIATYFCQQGNTLPTFGGGTKLEIK ?
# output < 1 OD

Where these numbers come from: patent US20250258178A1
